# credit: PubChem BioAssay AID1578

assay: NOD1 signaling inhibitors, primary screen, cell-based, luminescence, uHTS (AID 1578); conditions: NOD1-driven NF-kB luciferase reporter cells, at 4 µM;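 note: HEK-293T reporter cells stimulated with the NOD1 agonist gamma-tri-DAP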
Hit rate of the full screen: of about 290,000 compounds, about 3,000 (1%) were called active. Cut-off read from the data, not from the text of the source: active = inhibition mostly above about 36% (no sharp cut-off); inactive = mostly below about 34%. The full list was thinned out, with actives kept by preference.
Pick one: Y (active), N (inactive)

// param item: COc1cccc(NC(=O)c2ccccc2N2C(=O)C3C4C=CC(C5CC45)C3C2=O)c1 (stereo unspecified) ; yields the recorded call
N

// param item: CS(=O)(=O)c1nc(-c2ccccc2)cc(-c2ccccc2)c1C#N ; yields the recorded call
Y

// param item: CSCc1cc(N2CCOCC2)nc(SCc2ccc(Cl)c(Cl)c2)n1 ; yields the recorded call
N

// param item: COc1ccc(-c2cc(-c3ccccc3)nc(SC(C)C(=O)O)c2C#N)cc1 (stereo unspecified) ; yields the recorded call
N

// param item: CN(C)c1ccc(/C=C2\SC(=O)N(CCc3nnc(N)s3)C2=O)cc1 ; yields the recorded call
Y

// param item: CS(=O)(=O)c1nc(-c2ccc(Br)cc2)cc(-c2ccccc2)c1C#N ; yields the recorded call
N

====

experiment: NOD1 signaling inhibitors, primary screen, cell-based, luminescence, uHTS (AID 1578); conditions: NOD1-driven NF-kB luciferase reporter cells, at 4 µM, stronger effect = higher value;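 note: HEK-293T reporter cells stimulated with the NOD1 agonist gamma-tri-DAP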
The whole screen tested about 290,000 compounds, of which about 3,000 (1%) were called active. Many of the other results were omitted from the sample, so actives are more common in it than they were.
Give measured inhibition for each item. Keep answers brief.
Give the number; % is assumed, so skip it.

What does the record list as inhibition for Nc1cc(-c2ccc(Br)cc2)nn1Cc1ccccc1 ?
46.7

What does the record list as inhibition for O=C(CSc1cccc2cccnc12)N/N=C/c1ccncc1 ?
-32.7

What does the record list as inhibition for COc1ccc(C(=O)NC(=S)N(C)Cc2ccccc2)cc1Br ?
45

What does the record list as inhibition for COc1ccc(CNC(=O)CN2CCN(c3cccc(C)c3C)CC2)cc1 ?
-3.6

What does the record list as inhibition for CCCCC(=O)N/N=C/c1ccc(Sc2cccc3cccnc23)o1 ?
-12.8

What does the record list as inhibition for CCOc1ccc(/C=N/n2c(C)nc3ccccc3c2=O)cc1 ?
-12.3

What does the record list as inhibition for O=C(N/N=C/c1ccc(Cl)cc1Cl)C(=O)NC1CC1 ?
-3.9

What does the record list as inhibition for CCCSC(=S)c1c(C)[nH]n(-c2ccccc2)c1=O ?
50.5

What does the record list as inhibition for Cc1[nH]n(-c2ccccc2)c(=O)c1C(=O)c1ccccc1 ?
-3.5

What does the record list as inhibition for O=C(C(=O)N1CCOCC1)c1cn(CCOc2ccccc2)c2ccccc12 ?
1

What does the record list as inhibition for O=C(CCc1ccccc1)c1ccc2c(c1)OCCCO2 ?
-67.4

What does the record list as inhibition for COc1cccc(/C=N/NC(=O)CSc2cccc3cccnc23)c1 ?
33.4

What does the record list as inhibition for COc1ccc(C(=O)CN2C(=O)c3ccccc3C2=O)cc1 ?
-9.8

What does the record list as inhibition for COc1cc(/C=N/NC(=O)c2cnn3c(C)cc(-c4ccccc4)nc23)ccc1O ?
46.9

What does the record list as inhibition for Nc1cc(=O)[nH]n1C1CCN(c2ccccc2)CC1 ?
-4

What does the record list as inhibition for CCOC(=O)/C=C/C(=O)OCC(=O)NC(c1ccccc1)c1ccccc1 ?
25.7

What does the record list as inhibition for O=C(COC(=O)/C=C/C(=O)N1CCN(c2ccccc2)CC1)NCc1ccc(F)cc1 ?
-5.2

What does the record list as inhibition for CCn1c(=O)c([N+](=O)[O-])c(Cl)c2ccccc21 ?
61.2

What does the record list as inhibition for COC(=O)C1CC23C=CCN4CCC5(c6ccccc6NC15C2C)C43 (centres undefined) ?
46.8
